- System: LXRa:RXRa (NR concentration 270 nM, RXRa partner concentration 90 nM)
- EXPERIMENTAL PROTOCOL: PBM binding z-score (relative to random genomic background probes); higher = stronger binding; sequences stand for … in GC…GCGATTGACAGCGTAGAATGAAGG
PROPERTY LABEL: PBM binding z-score
Give bare numbers.

Consider the following items and state reported PBM binding z-score for each.
1. GCTCGAAGGACAAGGTCAGAGCTTTGTCCGTAGA
2. AGAACGAGGGCACACTGAGTTGATAGCAGAGTAG

Reply:
[1.79, 0.517]

====

- Tested on: PPARg:RXRa DBDmut IVT, anti-RXR (DBD mutation: RXRa K156A/R161A, NR concentration 270 nM, RXRa partner concentration 90 nM)
- EXPERIMENTAL PROTOCOL: PBM binding z-score (relative to random genomic background probes); higher = stronger binding; sequences stand for … in GC…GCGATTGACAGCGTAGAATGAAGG
Categories are assigned from the measured PBM binding z-score using these intervals: low group (below 0.1), middle group (0.1 to below 1), high group (1 or more)

Solved cases below.
>  <MACROMOLECULE SEQUENCE>
GCTATTAGTTGAAAGGGCAACCTAATGATTCTCG

>  <CLASSIFICATION>
middle group

$$$$
>  <MACROMOLECULE SEQUENCE>
CCTGCTAGGTAAATGGTCAGCTAAAGCAGCTCGC

>  <CLASSIFICATION>
high group

$$$$
>  <MACROMOLECULE SEQUENCE>
ATCTCTAGCTAAAGATAGTTCAGTGAATGCAAAT

>  <CLASSIFICATION>
low group

$$$$
>  <MACROMOLECULE SEQUENCE>
AGTCAAAGTTCAGTACGAGGTAACGTAAAGCACG

>  <CLASSIFICATION>
low group

$$$$

Task item: Lab log: CAGCCTAGGTCAGGGCCAGGATAGGAGGAACGTT — assign PBM binding z-score category
Reply: high group

Task item: Lab log: ATCGCTAGGTAAAGTTCAGTGAAAGATCGATAGA — assign PBM binding z-score category
Reply: low group

Hey, just so you know, these numbers are from the supplement of paper PMC6555819.
